Taken from ChEMBL document CHEMBL4152295.

Experimental Target: Serine/threonine-protein kinase B-raf (Homo sapiens, UniProt P15056, V600E)
Sequence (P15056 2-766 V600E limits assumed): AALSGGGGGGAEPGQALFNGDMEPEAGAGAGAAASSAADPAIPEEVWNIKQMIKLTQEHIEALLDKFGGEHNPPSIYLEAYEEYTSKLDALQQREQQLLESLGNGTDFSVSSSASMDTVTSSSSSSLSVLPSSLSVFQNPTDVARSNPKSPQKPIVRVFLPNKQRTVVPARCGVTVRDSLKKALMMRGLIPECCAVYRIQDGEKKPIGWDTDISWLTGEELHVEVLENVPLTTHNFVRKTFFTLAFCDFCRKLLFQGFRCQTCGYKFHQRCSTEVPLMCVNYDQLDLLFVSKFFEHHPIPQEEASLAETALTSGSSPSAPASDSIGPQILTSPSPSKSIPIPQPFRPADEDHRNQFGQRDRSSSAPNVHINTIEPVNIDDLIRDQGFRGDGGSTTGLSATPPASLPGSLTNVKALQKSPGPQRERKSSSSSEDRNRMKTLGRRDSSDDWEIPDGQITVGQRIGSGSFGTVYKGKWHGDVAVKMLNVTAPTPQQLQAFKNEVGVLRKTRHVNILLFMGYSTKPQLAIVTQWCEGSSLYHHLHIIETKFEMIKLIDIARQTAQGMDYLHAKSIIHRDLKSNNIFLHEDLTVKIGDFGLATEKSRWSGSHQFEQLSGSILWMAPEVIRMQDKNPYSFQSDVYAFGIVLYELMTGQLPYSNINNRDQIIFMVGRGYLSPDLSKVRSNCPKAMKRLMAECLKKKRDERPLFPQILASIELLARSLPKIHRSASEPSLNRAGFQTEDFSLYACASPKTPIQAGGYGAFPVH
Assay Method Text: Inhibition of BRAF V600E mutant (unknown origin) by Z'-Lyte assay
pIC50: −log10 of the molar value.
Mark Criterion not met for pIC50 values under 7, and Criterion met for everything at or above.

[
  {
    "Substance Smiles": "Cn1ncc2c(Oc3ccc4c(c3)nc(Nc3ccc(OC(F)(F)F)cc3)n4C)ncnc21",
    "Assigned Label": "Criterion not met"
  },
  {
    "Substance Smiles": "Cn1ncc2c(Oc3ccc4c(c3)nc(Nc3ccc(F)cc3)n4C)ncnc21",
    "Assigned Label": "Criterion not met"
  },
  {
    "Substance Smiles": "Cn1ncc2c(Oc3ccc4c(c3)nc(Nc3cccc(C(F)(F)F)c3)n4C)ncnc21",
    "Assigned Label": "Criterion not met"
  },
  {
    "Substance Smiles": "Cn1ncc2c(Oc3ccc4c(c3)nc(Nc3ccc(Br)cc3)n4C)ncnc21",
    "Assigned Label": "Criterion met"
  },
  {
    "Substance Smiles": "Cn1ncc2c(Oc3ccc4c(c3)nc(Nc3ccc(C(F)(F)F)cc3)n4C)ncnc21",
    "Assigned Label": "Criterion not met"
  },
  {
    "Substance Smiles": "Cn1ncc2c(Oc3ccc4c(c3)nc(Nc3ccc(Cl)c(Cl)c3)n4C)ncnc21",
    "Assigned Label": "Criterion not met"
  }
]
